Assayed target: UniProt P29275
Sequence (P29275 whole entry): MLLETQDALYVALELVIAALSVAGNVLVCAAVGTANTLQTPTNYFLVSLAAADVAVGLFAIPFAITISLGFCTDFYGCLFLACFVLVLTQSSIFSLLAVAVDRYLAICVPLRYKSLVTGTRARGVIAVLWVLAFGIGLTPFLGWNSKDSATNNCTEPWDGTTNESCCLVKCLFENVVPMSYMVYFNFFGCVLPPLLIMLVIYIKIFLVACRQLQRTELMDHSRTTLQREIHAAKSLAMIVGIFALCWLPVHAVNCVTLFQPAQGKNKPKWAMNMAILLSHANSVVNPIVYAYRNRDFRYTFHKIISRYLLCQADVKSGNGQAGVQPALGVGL
Assay remarks: Cellular in vitro reporter gene test for A2b receptor activity (antagonism of NECA)
Protocol conditions: recombinant CHO-K1 cells, CRE-luciferase reporter, co-incubation with EC50 concentration of NECA, 3 hours
Recorded endpoint: pIC50
Note: pIC50 values are expressed as the negative base-10 logarithm of concentration in M.

Query: Quote UniProt P29275 pIC50 for entry COCCn1c(=O)n(C2CC2C)c(=O)c2c(C)c(CN3CCNC3=O)sc21 (single isomer, unassigned) [Example 260] .
Result: 7.09

Query: Quote UniProt P29275 pIC50 for entry Cc1c(Cn2[nH]ccc2=O)sc2c1c(=O)n(C1CC1C)c(=O)n2CCOC(F)(F)F (single isomer, unassigned) [Example 275] .
Result: 7.20

Query: Quote UniProt P29275 pIC50 for entry `Cc1c(Cn2nc[nH]c2=O)sc2c1c(=O)n(C1CC1)c(=O)n2CC#N` .
Result: 6.89
